# Measured target: D(2) dopamine receptor (Rattus norvegicus, UniProt P61169)
# Sequence (P61169 whole entry): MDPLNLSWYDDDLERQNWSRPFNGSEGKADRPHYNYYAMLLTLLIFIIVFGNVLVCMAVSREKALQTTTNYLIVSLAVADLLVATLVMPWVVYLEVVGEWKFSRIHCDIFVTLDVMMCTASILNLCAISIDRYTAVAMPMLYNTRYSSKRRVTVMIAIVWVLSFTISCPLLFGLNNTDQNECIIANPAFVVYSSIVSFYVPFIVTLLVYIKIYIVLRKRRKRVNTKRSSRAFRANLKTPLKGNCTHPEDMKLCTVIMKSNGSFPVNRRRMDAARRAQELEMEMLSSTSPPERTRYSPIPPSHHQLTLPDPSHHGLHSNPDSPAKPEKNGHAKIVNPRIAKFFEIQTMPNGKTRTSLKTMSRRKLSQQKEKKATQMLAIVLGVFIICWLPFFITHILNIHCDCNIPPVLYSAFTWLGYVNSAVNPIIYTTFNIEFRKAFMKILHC
# Assay notes: Displacement of [3H]spiperone from dopamine D2 receptor of rat striatal membranes
Recorded measurements of IC50, one per entry

# input molecule: COc1c(Cl)cc(N2CCN(CCCCc3c[nH]c4ccc(C(N)=O)cc34)CC2)cc1Cl ; wanted: its IC50 > 100 nM

Would you kindly repeat that for O=C(O)c1ccc2[nH]cc(CCCCN3CCN(c4ccccc4)CC3)c2c1 ? > 100 nM

More entries:
So what's the measured IC50 for this one? CC(=O)Nc1ccc(N2CCN(CCCCc3c[nH]c4ccc(C(N)=O)cc34)CC2)cc1 > 100 nM
